Recorded Emax for the following compounds
molecular target: Glucocorticoid receptor (Homo sapiens) (UniProt P04150); assay: Transactivation activity at GR-mediated modulation of MMTV promoter activity in human HeLa cells transfected with luciferase gene linked to MMTV promoter after 16 hrs by luciferase reporter gene assay relative to dexamethasone; format: cell-based

Answered cases to consult:
substance_smiles	target_or_test_system	obs_value
CNC(=O)c1ccc(CC[C@]2(O)CCC3=Cc4c(cnn4-c4ccc(F)cc4)C[C@@]32C)cc1	Glucocorticoid receptor (Homo sapiens) (UniProt P04150)	< 10%
CNC(=O)c1cccc(CC[C@]2(O)CCC3=Cc4c(cnn4-c4ccc(F)cc4)C[C@@]32C)c1	Glucocorticoid receptor (Homo sapiens) (UniProt P04150)	< 10%
C[C@]12Cc3cnn(-c4ccc(F)cc4)c3C=C1[C@H](O)C[C@@]2(O)CCc1ccc(F)cc1C(N)=O	Glucocorticoid receptor (Homo sapiens) (UniProt P04150)	< 5%

As a next step, examine the compound that follows.
So what's the measured Emax for this one? Cc1cc2cnn(-c3ccc(F)cc3)c2cc1CCC(=O)CCc1ccc(F)cc1C(=O)O
< 5%

----------
Target: Glucocorticoid receptor (Homo sapiens) (UniProt P04150)
Sequence (whole entry): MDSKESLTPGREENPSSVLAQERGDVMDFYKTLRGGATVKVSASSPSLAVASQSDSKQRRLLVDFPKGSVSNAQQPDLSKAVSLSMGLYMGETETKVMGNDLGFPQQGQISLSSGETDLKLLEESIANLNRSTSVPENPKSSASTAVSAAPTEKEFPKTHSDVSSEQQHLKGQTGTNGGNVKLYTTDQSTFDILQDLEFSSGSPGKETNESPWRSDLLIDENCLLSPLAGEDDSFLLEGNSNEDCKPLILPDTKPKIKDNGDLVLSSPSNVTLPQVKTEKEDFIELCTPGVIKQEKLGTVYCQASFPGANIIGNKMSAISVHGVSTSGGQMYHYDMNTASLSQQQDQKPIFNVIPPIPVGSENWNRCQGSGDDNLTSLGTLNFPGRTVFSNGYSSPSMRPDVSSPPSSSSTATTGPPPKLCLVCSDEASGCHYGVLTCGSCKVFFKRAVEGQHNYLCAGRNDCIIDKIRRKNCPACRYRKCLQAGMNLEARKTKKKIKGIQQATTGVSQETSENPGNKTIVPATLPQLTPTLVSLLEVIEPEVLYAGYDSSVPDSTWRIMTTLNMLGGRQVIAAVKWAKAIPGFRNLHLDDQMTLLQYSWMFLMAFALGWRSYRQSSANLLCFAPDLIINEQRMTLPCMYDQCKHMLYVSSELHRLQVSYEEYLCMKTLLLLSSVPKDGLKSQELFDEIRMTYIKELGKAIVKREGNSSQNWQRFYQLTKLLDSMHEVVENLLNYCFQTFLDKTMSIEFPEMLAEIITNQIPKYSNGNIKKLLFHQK
Test: Transrepression activity at glucocorticoid receptor in human LPS and TPA-stimulated U937 cells assessed as effect on glucocorticoid-induced TNFalpha repression by beta lactamase reporter gene assay
Type: cell-based
Conditions: U-937
result_type: log10(IP) (log10 of the value in nM)
In our notation, the value equals log10 of IP in nM.

compound	target_or_test_system	log10(IP)
CCNC(=O)c1ccccc1CC[C@]1(O)CCC2=Cc3c(cnn3-c3ccc(F)cc3)C(O)[C@@]21C (stereo not given in full)	Glucocorticoid receptor (Homo sapiens) (UniProt P04150)	2.98
CCCNC(=O)c1ccccc1CC[C@]1(O)CCC2=Cc3c(cnn3-c3ccc(F)cc3)C[C@@]21C	Glucocorticoid receptor (Homo sapiens) (UniProt P04150)	2.10
C[C@]12Cc3cnn(-c4ccc(F)cc4)c3C=C1CC[C@@]2(O)CCc1cccc(F)c1C(=O)NC1(CO)CC1	Glucocorticoid receptor (Homo sapiens) (UniProt P04150)	1.38
C[C@]12Cc3cnn(-c4ccc(F)cc4)c3C=C1CC[C@@]2(O)CCc1c(F)cccc1C(N)=O	Glucocorticoid receptor (Homo sapiens) (UniProt P04150)	0.48

So what's the measured log10(IP) for this one? CC1(NC(=O)c2c(F)cccc2CC[C@]2(O)CCC3=Cc4c(cnn4-c4ccc(F)cc4)C[C@@]32C)CC1
1.30
